Target: T1, CD40 ligand (UniProt P29965 108-261, limits assumed)
T1 construct: Used immobilised, soluble, or biotinylated on streptavidin beads; also called CD154; soluble CD40L
T1 sequence (looked up): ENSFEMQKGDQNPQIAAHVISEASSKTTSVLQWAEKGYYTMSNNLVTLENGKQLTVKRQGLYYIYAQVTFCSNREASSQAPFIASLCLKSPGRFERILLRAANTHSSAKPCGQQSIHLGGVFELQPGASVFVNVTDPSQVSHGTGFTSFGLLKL
Assay: Alphascreen proximity assay (1hr), peptide titrated against 0.75nM CD40L; blocked interaction: CD40L with CD40; signal falls from about 27500 to about 5000 units
quantity-measured: pEC50
As a rule, pEC50 stands for the negative log10 of the concentration, concentration in M.

Can you look up the measured pEC50 of LLLFFFSPPFSIFSFSLTTLS (Cys-to-Ser derivative; also called M1-189Sa) [M7_189S] for me?
6.75
